Hey, just so you know, these numbers are from patent US20240247080A1.

# Assayed Target: hGIPR (Homo sapiens)
# Construct: expressed in transfected cells; host or cells: CHO cells carrying a CRE-luciferase reporter gene
# Sequence (P48546 22-466): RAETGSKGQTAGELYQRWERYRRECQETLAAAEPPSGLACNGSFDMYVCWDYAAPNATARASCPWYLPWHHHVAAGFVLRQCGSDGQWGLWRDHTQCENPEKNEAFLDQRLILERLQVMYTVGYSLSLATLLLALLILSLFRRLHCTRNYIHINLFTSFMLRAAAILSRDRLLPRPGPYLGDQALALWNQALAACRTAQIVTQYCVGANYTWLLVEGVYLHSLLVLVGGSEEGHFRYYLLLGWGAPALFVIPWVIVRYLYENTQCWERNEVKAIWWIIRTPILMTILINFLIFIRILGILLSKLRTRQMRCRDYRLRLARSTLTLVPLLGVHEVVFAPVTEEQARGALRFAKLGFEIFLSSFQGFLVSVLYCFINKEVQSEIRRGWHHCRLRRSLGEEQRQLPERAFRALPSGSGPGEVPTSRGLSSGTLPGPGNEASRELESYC
# Test Summary: hGIPR CreLuc reporter gene assay in 0.5% and 100% plasma
# Assay type: cell-based
# Test Conditions: CreLuc reporter gene assay, 0.5% human plasma; read-out: hGIPR 0.5% hP
Starred links: 1 amine or outer side, 2 acyl side, 3 side chain; linkers in the order of their positions; H or OH if unused. Non-standard residues stand in square brackets, D forms with d. Groups on a side chain read outwards from the residue. *: point of attachment. C20 diacid = O=C(O)CCCCCCCCCCCCCCCCCCC(=O)*; C18 diacid = O=C(O)CCCCCCCCCCCCCCCCC(=O)*; γGlu = O=C(O)[C@H](CCC(=O)[*:2])N[*:1]; εLys = N[C@@H](CCCCN[*:1])C(=O)[*:2]; Aib = CC(C)(N)C(=O)O
Each record here notes measured EC50.
Readout Name: EC50 (nM)

[[record]]
substance = "H-Y[Aib]EGTFTSDYSI[Aib]LEKQAQ[Aib]AFVEWLIK([εLys-γGlu-γGlu-γGlu-γGlu-γGlu-γGlu-C20 diacid])GGPSSYVSIRHYYNWLTRQRY-NH2 [Compound 9]"
assayed_target = "hGIPR (Homo sapiens)"
recorded_measurement = 0.21

[[record]]
substance = "H-Y[Aib]EGTFTSDYSI[Aib]LEKQAQ[Aib]AFVEWLIK([εLys-γGlu-γGlu-γGlu-γGlu-γGlu-γGlu-C20 diacid])GGPSEGQSIRHYYNWLTRQRY-NH2 [Compound 134]"
assayed_target = "hGIPR (Homo sapiens)"
recorded_measurement = 0.09

[[record]]
substance = "H-Y[Aib]EGTFTSDYSI[Aib]LEKQAQ[Aib]EFVQWLIK([γGlu-γGlu-γGlu-γGlu-γGlu-C18 diacid])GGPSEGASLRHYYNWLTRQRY-NH2 [Compound 141]"
assayed_target = "hGIPR (Homo sapiens)"
recorded_measurement = 0.4

